TARGET OF ASSAY: CKIα (Homo sapiens, UniProt P48729)
Construct: purchased Invitrogen PV3850
Sequence (P48729 whole entry): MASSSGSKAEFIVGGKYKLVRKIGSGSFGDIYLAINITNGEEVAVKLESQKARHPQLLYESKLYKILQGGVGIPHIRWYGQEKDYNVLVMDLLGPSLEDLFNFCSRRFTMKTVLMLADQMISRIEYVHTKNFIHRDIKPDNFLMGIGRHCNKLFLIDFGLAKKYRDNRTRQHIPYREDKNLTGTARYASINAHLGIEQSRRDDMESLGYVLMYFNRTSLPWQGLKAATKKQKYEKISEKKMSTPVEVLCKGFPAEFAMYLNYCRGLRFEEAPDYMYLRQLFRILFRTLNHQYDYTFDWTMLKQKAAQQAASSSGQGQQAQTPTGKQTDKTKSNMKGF
PROTOCOL SUMMARY: In vitro kinase assay (Kinase Glo), CKIα
Assay type: biochemical
CONDITION PARAMETERS: irradiated with UV light (365 nm) before and during the assay, cis-enriched; read-out: CKIα IC50, light
Please provide measured pIC50 for the entries that follow.
Bear in mind: pIC50 is minus log10 of a mol/L concentration; give just that figure.

Give the observed pIC50 of `CC(C)n1cnc2c(NCc3ccccc3/N=N/c3ccccc3)ncnc21` for CKIα (Homo sapiens, UniProt P48729). 4.27

Write down the reported pIC50 (system: CKIα (Homo sapiens, UniProt P48729)) of CC(C)n1cnc2c(NCc3cccc(C(F)(F)F)c3)ncnc21 [longdaysin, reference compound] 5.37

Param request: pIC50 | system CKIα (Homo sapiens, UniProt P48729) | item `CC(C)n1cnc2c(NCc3cccc(/N=N/c4c(F)cccc4F)c3)ncnc21` 5.03

Please report pIC50 with CKIα (Homo sapiens, UniProt P48729) for item `COc1ccc(/N=N/c2cccc(CNc3ncnc4c3ncn4C(C)C)c2)cc1` . 4.88

Look up CKIα (Homo sapiens, UniProt P48729) data: pIC50 of `Cc1nn(C)c(C)c1/N=N/c1cccc(CNc2ncnc3c2ncn3C(C)C)c1` , then report it. 4.62

For CKIα (Homo sapiens, UniProt P48729), give pIC50 of the listed compound: `CC(C)n1cnc2c(NCc3cccc(/N=N/c4ccccc4)c3)ncnc21` 5.07

Print CKIα (Homo sapiens, UniProt P48729) pIC50 for `CC(C)n1cnc2c(NCc3ccc(/N=N/c4ccccc4)cc3)ncnc21` . 5.35
